Quick reference: pIC50 of the listed items.
# subject_of_test: BRD4 bromo domain 1 [BRD4(1)] (Homo sapiens, UniProt O60885)
# Construct: N-terminally His6-tagged BRD4(1) (amino acids 67-152)
# run_description: BRD4(1)/acetylated peptide H4 binding assay (TR-FRET)
# conditions: inhibition of interaction between His6-tagged BRD4(1) (amino acids 67-152) and acetylated histone H4 peptide
# Text: Protein-Protein Interaction Assay: BRD4/Acetylated Peptide H4 Binding Assay 1. Assay Description for BRD4 Bromo Domain 1 [BRD4(1)] To assess the BRD4(1) binding strength of the substances described in this application, the ability thereof to inhibit the interaction between BRD4(1) and acetylated histone H4 in a dose-dependent manner was quantified. […]
Value format note: pIC50 is -log10 of concentration (mol/L); just state the number.

Here's what some known entries look like.
1. Cc1cc(C(=O)NC2CCN(C)CC2)ccc1Nc1ccc2c(n1)N(C1CCOCC1)[C@H](C)C(=O)N2C; 6.45
2. C[C@@H]1C(=O)N(C)c2ccc(Nc3ccc(S(=O)(=O)N(C)C)cc3)nc2N1Cc1ccccc1; 6.81
3. C[C@@H]1C(=O)N(C)c2ccc(Nc3ccc(S(=O)(=O)N[C@H]4CC[C@H](N5CCN(CC6CC6)CC5)CC4)cc3)nc2N1Cc1ccccc1; 7.44
4. COc1cc(C(=O)NC2CCN(C)CC2)ccc1Nc1ccc2c(n1)N(C1CCCCC1)[C@H](C)C(=O)N2C; 6.98
5. C[C@@H]1C(=O)N(C)c2ccc(Nc3ccc(S(=O)(=O)NCCc4cccnc4)cc3)nc2N1C1CCOCC1; 6.66

Return reported pIC50; argument: C[C@@H]1C(=O)N(C)c2ccc(Nc3ccc(C(=O)NC4CCC(O)CC4)cc3)nc2N1Cc1ccccc1 (stereo partly shown)
6.81

Return reported pIC50; argument: `C[C@@H]1C(=O)N(C)c2ccc(Nc3ccc(S(=O)(=O)NCc4ccccn4)cc3)nc2N1C1CCOCC1`
7.30

Return reported pIC50; argument: COCCN1c2nc(Nc3ccc(C(=O)NC4CCN(C)CC4)cc3)ccc2N(C)C(=O)C1C (stereo not shown)
6.21

Return reported pIC50; argument: `COc1cc(C(=O)N2CC3(CCS3(=O)=O)C2)ccc1Nc1ccc2c(n1)N(C1CCCC1)[C@H](C)C(=O)N2C`
6.78

Return reported pIC50; argument: C[C@@H]1C(=O)N(C)c2ccc(Nc3ccc(C(=O)NC4CCC(N5CCC(F)(F)CC5)CC4)cc3)nc2N1C1CCCCC1 (stereo partly shown)
6.02

Return reported pIC50; argument: `C[C@@H]1C(=O)N(C)c2ccc(Nc3ccc(C(=O)N4CC5(CCS5(=O)=O)C4)cc3)nc2N1Cc1ccccc1`
6.83

Return reported pIC50; argument: `COc1cc(C(=O)NCCN(C)C)ccc1Nc1ccc2c(n1)N(C(C)C)[C@H](C)C(=O)N2C`
7.03

Return reported pIC50; argument: `C[C@@H]1C(=O)N(C)c2ccc(Nc3ccc(S(=O)(=O)NCCN4CCN(C)CC4)cc3)nc2N1C1CCOCC1`
7.34

====

Quick reference: IC50 of the listed items.
# Tested on: MOLM-13 cell line
# run_description: MOLM-13 cell proliferation assay (alamarBlue)
# Type: cell-based
# conditions: Homo sapiens, inhibition of proliferation of MOLM-13 cells (acute myeloid leukaemia), 96 hours incubation
Quick note: give the figure in nM, leave out the unit.

Here's what some known entries look like.
1) COc1cc(Nc2ccc3c(n2)N(C2CCOCC2)[C@H](C)C(=O)N3C)ccc1S(=O)(=O)N1CCN(C)CC1 [Example 26]; 296
2) COc1cc(C(=O)N2CC3(COC3)C2)ccc1Nc1ccc2c(n1)N(Cc1ccccc1)[C@H](C)C(=O)N2C [Example 83]; 122
3) COc1cc(C(=O)NC2CN(C)C2)ccc1Nc1ccc2c(n1)N(C1CCOCC1)[C@H](C)C(=O)N2C [Example 55]; 668
4) C[C@@H]1C(=O)N(C)c2ccc(Nc3ccc(S(=O)(=O)N(C)C)cc3)nc2N1C1CCOCC1 [Example 27]; 202
5) C[C@@H]1C(=O)N(C)c2ccc(Nc3ccc(S(=O)(=O)N4CCOCC4)cc3)nc2N1C1CCOCC1 [Example 18]; 305

Return reported IC50; argument: COc1cc(C(=O)NC2CCN(C)CC2)ccc1Nc1ccc2c(n1)N(C1CCCC1)[C@H](C)C(=O)N2C [Example 1]
176

Return reported IC50; argument: C[C@@H]1C(=O)N(C)c2ccc(Nc3ccc(C(=O)N4CC5(CCS5(=O)=O)C4)cc3)nc2N1C1CCCC1 [Example 7]
377

====

# subject_of_test: BRD4 bromo domain 1 [BRD4(1)] (Homo sapiens)
# Construct: N-terminally His6-tagged BRD4(1) (amino acids 67-152)
# run_description: BRD4(1)/acetylated peptide H4 binding assay (TR-FRET)
# conditions: inhibition of interaction between His6-tagged BRD4(1) (amino acids 67-152) and acetylated histone H4 peptide
# Description: Protein-Protein Interaction Assay: BRD4/Acetylated Peptide H4 Binding Assay 1. Assay Description for BRD4 Bromo Domain 1 [BRD4(1)] To assess the BRD4(1) binding strength of the substances described in this application, the ability thereof to inhibit the interaction between BRD4(1) and acetylated histone H4 in a dose-dependent manner was quantified. […]
result_type: IC50 (nM)
Quick note: give the figure in nM, leave out the unit.

Here's what some known entries look like.
1) COc1cc(C(=O)NCc2ccccn2)ccc1Nc1ccc2c(n1)N(C1CCOCC1)[C@H](C)C(=O)N2C; 201
2) COc1cc(C(=O)N[C@H]2CC[C@H](NC(=O)OC(C)(C)C)CC2)ccc1Nc1ccc2c(n1)N(C1CCOCC1)[C@H](C)C(=O)N2C; 533
3) COc1cc(C(=O)NC2CCN(C)CC2)ccc1Nc1ccc2c(n1)N(C1CCCC1)[C@H](C)C(=O)N2C; 260
4) C[C@@H]1C(=O)N(C)c2ccc(Nc3ccc(C(=O)NC4CN(C)C4)cc3)nc2N1C1CCCCC1; 119
5) COCCN1c2nc(Nc3ccc(C(=O)N[C@H]4CC[C@H](N5CCN(CC6CC6)CC5)CC4)cc3)ccc2N(C)C(=O)C1C (stereo partly shown); 452
6) COc1cc(C(=O)NCCN2CCN(C)CC2)ccc1Nc1ccc2c(n1)N(C1CCCCCC1)[C@H](C)C(=O)N2C; 154

Lab note: next compound to report on.
Return reported IC50; argument: `C[C@@H]1C(=O)N(C)c2ccc(Nc3ccc(C(=O)NC4CCN(C)CC4)cc3)nc2N1C1CCOCC1`
111

====

# System: MOLM-13 cell line
# run_description: MOLM-13 cell proliferation assay (alamarBlue)
# Format: cell-based
# conditions: Homo sapiens, inhibition of proliferation of MOLM-13 cells (acute myeloid leukaemia), 96 hours incubation
result_type: IC50 (µM)
Quick note: give the figure in µM, leave out the unit.

Here's what some known entries look like.
1. COc1cc(C(=O)NC2CCC(N3CCC(F)(F)CC3)CC2)ccc1Nc1ccc2c(n1)N(C1CCOCC1)[C@H](C)C(=O)N2C (stereo partly shown); 0.444
2. C[C@@H]1C(=O)N(C)c2ccc(Nc3ccc(C(=O)N4CC5(COC5)C4)cc3)nc2N1Cc1ccccc1; 0.191
3. COc1cc(C(=O)NCCN2CCOCC2)ccc1Nc1ccc2c(n1)N(C(C)C)[C@H](C)C(=O)N2C; 0.63

Return reported IC50; argument: `COc1cc(C(=O)NC2CCC(=O)CC2)ccc1Nc1ccc2c(n1)N(C1CCOCC1)[C@H](C)C(=O)N2C`
0.051

Return reported IC50; argument: `C[C@@H]1C(=O)N(C)c2ccc(Nc3ccc(C(=O)N4CC5(COC5)C4)cc3)nc2N1C1CCCCC1`
0.358

Return reported IC50; argument: `COc1cc(C(=O)NC2CCN(C)CC2)ccc1Nc1ccc2c(n1)N(C(C)C)[C@H](C)C(=O)N2C`
2.36

Return reported IC50; argument: `C[C@@H]1C(=O)N(C)c2ccc(Nc3ccc(S(=O)(=O)NCCN(C)C)cc3)nc2N1C1CCOCC1`
0.554

Return reported IC50; argument: `C[C@@H]1C(=O)N(C)c2ccc(Nc3ccc(S(=O)(=O)N4CCN(C)CC4)cc3)nc2N1C1CCOCC1`
0.445

====

# System: MOLM-13 cell line
# run_description: MOLM-13 cell proliferation assay (alamarBlue)
# Type: cell-based
# conditions: Homo sapiens, inhibition of proliferation of MOLM-13 cells (acute myeloid leukaemia), 96 hours incubation
# Method: In accordance with the invention, the substances were tested for their ability to inhibit the proliferation of the MOLM-13 cell linie (Deutsche Sammlung für Mikroorganismen und Zellkulturen [German Collection of Microorganisms and Cell Cultures], ACC 554; acute myeloid leukaemia). Cell viability was determined by means of the alamarBlue® reagent (Invitrogen) in a Victor X3 Multilabel Reader (Perkin Elmer). The excitation wavelength was 530 nm and the emission wavelength […]. […]
Quick reference: IC50 of the listed items.
Quick note: give the figure in nM, leave out the unit.

Here's what some known entries look like.
1) COc1cc(C(=O)N[C@H]2CC[C@H](N3CCN(CC4CC4)CC3)CC2)ccc1Nc1ccc2c(n1)N(Cc1ccccc1)[C@H](C)C(=O)N2C [Example 34]; 338
2) COc1cc(C(=O)N[C@H]2CC[C@H](N3CCN(CC4CC4)CC3)CC2)ccc1Nc1ccc2c(n1)N(C1CCOCC1)[C@H](C)C(=O)N2C [Example 14]; 233

Return reported IC50; argument: COc1cc(C(=O)N2CC3(CCS3(=O)=O)C2)ccc1Nc1ccc2c(n1)N(C(C)C)[C@H](C)C(=O)N2C [Example 8]
362
